# System: helical strips of swine coronary artery (serotonin-induced contraction)
# assayMethodText: In vitro coronary vasodilator activity: antagonism of contractions induced by serotonin (1 mM)
# Format: cell-based
# testSettings: Sus scrofa; serotonin 1 mM; read-out: inhibitory concentration 50 (IC50), effect on serotonin-induced contractions in swine coronary artery
Note to self: use label 1 only for IC50 readings below 6 µM; a reading exactly at 6 µM still gets label 0.

As a guide, the following entries are already answered.
>>> label("CC(C)NCC(O)COc1ccc(CC(=O)OCCO[N+](=O)[O-])cc1 (centres unmarked)")
"label 1"
>>> label("CC(C)NCC(O)COc1ccc(COCCO[N+](=O)[O-])cc1 (centres unmarked)")
"label 0"
>>> label("O=C(NCCO[N+](=O)[O-])c1cccnc1 [Nicorandil, reference compound]")
"label 0"

Here is another molecule to look at.
Prompt: hey, is IC50 for O=[N+]([O-])OCC(CO[N+](=O)[O-])O[N+](=O)[O-] [Nitroglycerine, reference compound] lower than 6 µM or not?
Response: label 1

###

Can you tell me pIC50 for the items I'm about to list?
# targetOrTestSystem: β1-adrenergic (isolated guinea pig left auricle) (Cavia porcellus, UniProt H0W3H1)
# Construct: electrically stimulated isolated left auricle of the guinea pig; from tissue; host or cells: isolated left auricle of guinea pig
# Sequence (H0W3H1 1-470): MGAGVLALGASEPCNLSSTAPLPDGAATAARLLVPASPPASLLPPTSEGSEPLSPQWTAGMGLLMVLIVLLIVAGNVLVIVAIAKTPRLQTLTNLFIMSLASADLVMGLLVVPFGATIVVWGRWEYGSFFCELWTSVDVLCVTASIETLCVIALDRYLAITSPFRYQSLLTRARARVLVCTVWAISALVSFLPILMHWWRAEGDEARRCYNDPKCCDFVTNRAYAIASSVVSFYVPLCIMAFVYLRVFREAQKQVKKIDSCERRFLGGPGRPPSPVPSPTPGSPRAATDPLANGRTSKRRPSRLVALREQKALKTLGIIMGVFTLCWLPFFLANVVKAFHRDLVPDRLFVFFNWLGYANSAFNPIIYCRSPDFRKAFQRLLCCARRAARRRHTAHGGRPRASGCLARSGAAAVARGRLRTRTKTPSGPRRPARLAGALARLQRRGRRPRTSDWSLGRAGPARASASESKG
# assayMethodText: In vitro β1-adrenergic blocking activity: antagonism of isoprenaline-induced positive inotropic response in electrically stimulated isolated left auricle
# Type: cell-based
# testSettings: electrically stimulated isolated guinea pig left auricle; read-out: inhibitory concentration 50 (IC50), antagonism of isoprenaline-induced positive inotropic response
Give bare numbers, as −log10 of the molar value.

Past entries and their recorded results:
>>> result("CC(C)NCC(O)COc1ccc(COCCO[N+](=O)[O-])cc1 (stereo not drawn)")
6.22
>>> result("CC(C)NCC(O)COc1ccc(COCCCO[N+](=O)[O-])cc1 (stereo not drawn)")
6.15

In the following, a different compound is considered.
Prompt: Report pIC50 for CC(C)NCC(O)COc1ccc(CC(=O)OCCO[N+](=O)[O-])cc1 (stereo not drawn) tested on β1-adrenergic (isolated guinea pig left auricle) (Cavia porcellus, UniProt H0W3H1).
Response: 5.12

###

# Tested on: helical strips of swine coronary artery (potassium-induced contraction)
# assayMethodText: In vitro coronary vasodilator activity: antagonism of contractions induced by potassium (35 mM)
# Assay type: cell-based
# testSettings: Sus scrofa; potassium 35 mM; read-out: inhibitory concentration 50 (IC50), effect on K+-induced contractions in swine coronary artery
pIC50: −log10 of the molar value.
The label depends only on pIC50: TRUE if it is at least 5, FALSE if it is smaller.

Example entries begin here.
>>> label("O=[N+]([O-])OCC(CO[N+](=O)[O-])O[N+](=O)[O-] [Nitroglycerine, reference compound]")
"TRUE"
>>> label("CC(C)NCC(O)COc1ccc(COCCCO[N+](=O)[O-])cc1 (stereo not shown)")
"TRUE"
>>> label("CC(C)NCC(O)COc1ccc(CC(=O)OCCO[N+](=O)[O-])cc1 (stereo not shown)")
"TRUE"

Prompt: hey, is pIC50 for this one >= 5? CC(C)NCC(O)COc1ccc(COCCO[N+](=O)[O-])cc1 (stereo not shown)
Response: TRUE

Prompt: // same read-out, input: O=C(NCCO[N+](=O)[O-])c1cccnc1 [Nicorandil, reference compound]
Response: FALSE

Prompt: Subsequent entry: CC(C)NCC(O)COc1c(CC(=O)NCCO[N+](=O)[O-])ccc2ccccc12 (stereo not shown)
Response: FALSE

Prompt: Okay, and CC(C)NCC(O)COc1ccc2ccccc2c1CC(=O)NCCO[N+](=O)[O-] (stereo not shown) ?
Response: FALSE

###

# Tested on: helical strips of swine coronary artery (potassium-induced contraction)
# assayMethodText: In vitro coronary vasodilator activity: antagonism of contractions induced by potassium (35 mM)
# Assay type: cell-based
# testSettings: Sus scrofa, read-out: inhibitory concentration 50 (IC50), effect on K+-induced contractions in swine coronary artery
measureName: IC50 (nM)
Answers are plain numbers, in nM.

Prompt: // returns reported IC50 for input CC(C)NCC(O)COc1ccc(COCC(CO[N+](=O)[O-])O[N+](=O)[O-])cc1 (stereo not shown)
Response: 500
